All values here come from paper PMC8464079.

Target: T1, MUT-#13 (K513R) (Caenorhabditis elegans, UniProt Q09487 172-535, K513R)
T1 sequence: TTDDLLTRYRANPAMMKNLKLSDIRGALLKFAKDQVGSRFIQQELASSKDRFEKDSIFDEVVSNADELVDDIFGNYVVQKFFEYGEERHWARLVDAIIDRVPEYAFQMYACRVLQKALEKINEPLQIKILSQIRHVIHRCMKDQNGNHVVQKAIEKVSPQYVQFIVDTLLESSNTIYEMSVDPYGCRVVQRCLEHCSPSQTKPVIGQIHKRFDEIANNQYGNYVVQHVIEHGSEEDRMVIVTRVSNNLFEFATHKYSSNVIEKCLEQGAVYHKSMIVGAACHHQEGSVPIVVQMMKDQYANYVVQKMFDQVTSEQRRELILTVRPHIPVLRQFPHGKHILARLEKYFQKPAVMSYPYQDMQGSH
Test: fluorescence polarization
PROPERTY NAME: pKd
Reminder that pKd means the negative base-10 logarithm of the concentration expressed in mol/L.

pKd reported for this binder UGUAAAUA (ssRNA) [PBE-5A FAM] : 7.22
